# Assayed target: cyno ST2L (cyno)
# Assay comment: affinity table; method not stated
Endpoint name: kon (M⁻¹ s⁻¹)
Write the answer as a number in M⁻¹ s⁻¹, unit excluded.

# kon lookup, item STLM209 (antibody, from another filing, V domains shown) VH: EVQLLESGGGLVQPGGSLRLSCAASGFTFSIYDMIWVRQAPGKGLEWVSTIRGEGGGTSYADSVKGRFTISRDNSKNTLYLQMNSLRAEDTAVYYCARDPWSTEGSFFVLDYWGQGTLVTVSS VL: EIVLTQSPATLSLSPGERATLSCRASQSVDDDLAWYQQKPGQAPRLLIYDASNRATGIPARFSGSGSGTDFTLTISSLEPEDFAVYYCQQYITAPLTFGQGTKVEIK
3.39e+07

Below: the item to evaluate.
Which kon is reported for this binder? STLM103 (antibody, from another filing, V domains shown) VH: EVQLLESGGGLVQPGGSLRLSCAASGFTFSFYDMFWVRQAPGKGLEWVSSIRGEGGRTDYADSVKGRFTISRDNSKNTLYLQMNSLRAEDTAVYYCARDPWSTEGSFFVLDYWGQGTLVTVSS VL: EIVLTQSPATLSLSPGERATLSCRASQSVDDDLAWYQQKPGQAPRLLIYDASNRATGIPARFSGSGSGTDFTLTISSLEPEDFAVYYCQQYIGAPITFGQGTKVEIK
6.42e+06
